- Test system: SF-539
- run description: NCI tumour cell line growth inhibition, 48 h
The source made the active and inactive calls. No stated cut-off is given here; in the data, active = GI50 up to about 1.1 µM and inactive = higher.
Classes used: active, inactive

| molecule | cat |
| --- | --- |
| C/C=C/C=C/[C@H]1Cc2cc(O)cc(O)c2O1 | inactive |
| COc1cccc2ccc(C(=O)c3ccccc3)nc12 | inactive |
| C=C1C(=O)C[C@H]2C(=C)C(=O)O[C@@H]2C2C1CC[C@@]2(C)O (some centres undefined) | inactive |
| CC(=O)OC1COC(N2C(=O)C(=O)c3ccccc32)C(OC(C)=O)C1OC(C)=O (centres undefined) | inactive |
| C[N+](C)(C)CC1CCCCCCCCCCC1=O (centres undefined) | inactive |
| CC(=O)Nc1ccc(C(=O)N2N=C(C)/C(=C/c3ccc(O)cc3)C2=O)cc1 | inactive |
| CC1[C@@]2(O[C@@H]3C=C4C5CCC6Cc7nc8c(nc7C[C@@]6(C)C5C[C@H](O)[C@@]4(C)[C@]13O)CC1CCc3c(cc4c5c3C(O)C[C@H]5[C@@H](C)C3(O4)OC(C)(C)CC3O)[C@]1(C)C8)O[C@@](C)(CO)C[C@@H]2O (some centres undefined) | active |
| O=C1C2C(C(=O)N1Cc1ccccc1)N(Cc1ccccc1)C(=O)N2Cc1ccccc1 (centres undefined) | inactive |
| O=C1CC(C(O)(C(F)(F)F)C(F)(F)Cl)CCC1C(O)(C(F)(F)F)C(F)(F)Cl (centres undefined) | inactive |
